# credit: PubChem BioAssay (NCI)

Test system: KM12 colon
Assay: NCI tumour cell line growth inhibition, 48 h
endpoint-label: log10 TGI (log10 of the value in µM)

compound: COc1cccc(-c2ccc3c4c2O[C@H]2C(=O)CC[C@@]5(O)[C@@H](C3)N(CC3CC3)CC[C@]425)c1
log10 TGI: 1.50
//
compound: COc1ccc(-c2n[nH]nc2-c2cc(OC)c(OC)c(OC)c2)cc1
log10 TGI: -1.35
//
compound: CCOC(=O)c1cc(C(O)P2(=O)N(CC(C)(C)C)[C@@H]3CCCC[C@H]3N2CC(C)(C)C)cn1C(=O)OC(C)(C)C (stereo not given in full)
log10 TGI: 1.47
//
compound: COc1cc(C(=O)N(Cc2cccnc2)C(=S)N(Cc2cccnc2)C(=O)c2cc(OC)c(OC)c(OC)c2)cc(OC)c1OC
log10 TGI: 1.75
//
compound: CCOC(=O)/C=C(/C(=O)OCC)n1ccc(=O)n(Cc2cn(COCCOC(C)=O)nn2)c1=O
log10 TGI: 1.56
//
compound: CCOC(=O)C(=Cc1[nH]c2ccccc2c1-c1c[nH]c2ccccc12)C(=O)OCC
log10 TGI: 1.26

----------
Test system: SK-MEL-28 melanoma
Assay: NCI tumour cell line growth inhibition, 48 h

compound: Cc1c(S(=O)(=O)/N=C(\NO)Nc2ccc(Cl)c(Cl)c2)sc2ccc(Cl)cc12
TGI: 42.5 µM

compound: CCOC(=O)/C=C(/C(=O)OCC)n1ccc(=O)n(Cc2cn(COCCOC(C)=O)nn2)c1=O
TGI: 35.1 µM

compound: COc1ccccc1CNCCCN1C(=O)c2ccc3c4c(ccc(c24)C1=O)C(=O)N(CCCOCCCCOCCCN)C3=O
TGI: 3.05 µM

compound: CC1CC[C@]2(C(=O)O)CCC3(C)C(=CC(=O)C4[C@@]5(C)CCC(=O)C(C)(C)C5CC[C@]43C)[C@@H]2[C@H]1C (stereo not given in full)
TGI: 42.9 µM

compound: CC(=O)CSCc1ccccn1
TGI: > 100 µM

----------
Listing: TGI of selected compounds
Test system: UACC-257 melanoma
Test: NCI tumour cell line growth inhibition, 48 h

compound: Cc1cccc(NC(=O)/C(=N\NC(C)(C)C)C2NC(=S)NC2=O)c1C (stereo not given)
TGI: > 100 µM
//
compound: O=C(N/N=C\c1cccc2c([N+](=O)[O-])cccc12)Nc1ccccc1
TGI: 44.4 µM
//
compound: Cc1cc(S(=O)(=O)N=C2N(Cc3ccccc3)CCN2Cc2ccccc2)c(S)cc1Cl
TGI: > 100 µM
//
compound: CCCCCCCC/C=C/CCCCCCCC(=O)OC[C@H]1O[C@@H](n2ccc(N)nc2=O)C(F)(F)[C@@H]1O
TGI: > 100 µM
//
compound: O=Cc1ccc(OCc2cccc(COc3ccc(/C=N\Nc4ccc([N+](=O)[O-])cc4[N+](=O)[O-])cc3)n2)cc1
TGI: > 100 µM

----------
Tested on: HL-60(TB) leukemia
Assay: NCI tumour cell line growth inhibition, 48 h
Listing: TGI of selected compounds

compound: CC(C)C(Nc1c2ccccc2nc2ccccc12)C(=O)O (stereo unspecified)
TGI: > 100 µM
--
compound: COc1cc(/C=C2\C(=O)N(c3ccccc3)C(c3ccccc3)S2(=O)=O)cc(OC)c1OC (stereo unspecified)
TGI: > 100 µM
--
compound: Nc1cc2[nH]c(=O)c(=O)[nH]c2cc1N
TGI: > 100 µM
--
compound: COC1=C(OC)C(=O)C(Cc2c(C)nc3sc(C)cn23)=C(C)C1=O
TGI: 29.8 µM
--
compound: CCOC(=O)N/N=C(/N)c1cccc([N+](=O)[O-])c1
TGI: > 100 µM
--
compound: NS(=O)(=O)c1ccc(NC2(C(=O)O)CCCC2)cc1
TGI: > 100 µM
--
compound: O=C1/C(=C/c2ccc([N+](=O)[O-])cc2)C(=O)N(c2ccccc2)C1c1ccccc1 (stereo unspecified)
TGI: > 10 µM
--
compound: Cn1c(=O)c(C(c2ccc([N+](=O)[O-])cc2)c2c(O)c3ccccc3n(C)c2=O)cc2ccccc21 (stereo unspecified)
TGI: > 100 µM
--
compound: O=C(O)Cc1cccc2c(=O)c3ccccc3oc12
TGI: > 100 µM
--
compound: Cc1ccc(/C=C2\CCCc3ccccc3C2=O)cc1
TGI: 30.7 µM
--
compound: O=Cc1ccc2c(c1)CC1(Cc3ccccc3C1)C2
TGI: 39.5 µM
--
compound: N=C(N)c1ccc(C(NC(=O)CNS(=O)(=O)c2ccc3ccccc3c2)P(=O)(Oc2ccccc2)Oc2ccccc2)cc1 (stereo unspecified)
TGI: > 100 µM
--
compound: CCOc1ccccc1N=Nc1ccc2oc(=O)c(C(=O)Nc3cccc(C)c3)cc2c1
TGI: 63.3 µM
--
compound: COc1cc2c(c(OC)c1OC)-c1ccc(OC)c(=O)cc1[C@@H](NC(=O)c1ccccc1)CC2
TGI: < 0.013 µM
--
compound: Nc1nc(N)c2ncn(-c3ccc(Cl)cc3)c2n1
TGI: > 100 µM
--
compound: Cc1cc(S(=O)(=O)N=C2N(Cc3ccccc3)CCN2Cc2ccccc2)c(S)cc1Cl
TGI: > 100 µM
--
compound: CN(C)C(=O)c1cc2cnc(Nc3ccc(-c4csc5c(=S)cc(N6CCOCC6)oc45)cc3)nc2n1C1CCCC1
TGI: 1.97 µM
--
compound: Cc1cccc(NC(=O)/C(=N\NC(C)(C)C)C2NC(=S)NC2=O)c1C (stereo unspecified)
TGI: > 100 µM
--
compound: Clc1nc(Cl)c(Cl)c(-c2ccccc2)n1
TGI: > 100 µM
--
compound: CCOC(=O)[C@@H](N)CCC(=O)N[C@@H](CSCc1ccccc1)C(=O)N[C@@H](C(=O)OCC)c1ccccc1
TGI: 39.5 µM
--
compound: COC(=O)[C@H](C)NC(=O)NC(=O)NC(=O)CI
TGI: 4.51 µM

----------
Tested on: SW-620 colon
Test: NCI tumour cell line growth inhibition, 48 h
endpoint-label: TGI

compound: O=C1OC(C(O)CO)C(=O)C1=O (centres undefined)
endpoint-label: TGI
result: 5080 µM
--
compound: N=C1C(c2nc3ccccc3s2)=C(O)CN1c1cc(C(F)(F)F)ccc1Cl
endpoint-label: TGI
result: > 100 µM
--
compound: C(=Nc1ccc(-c2nc3ccccc3[nH]2)cc1)c1cccs1
endpoint-label: TGI
result: > 100 µM
--
compound: COc1cc2nc3cc([N+](=O)[O-])ccc3c(NCCCNCCO)c2cc1OC
endpoint-label: TGI
result: 1.03 µM
--
compound: C[C@@]12CC=C3c4nc(Nc5cccc(O)c5)sc4CC[C@]3(C)[C@H]1CC[C@]1(C)C(=O)CC[C@@H]21
endpoint-label: TGI
result: 4.82 µM
--
compound: COc1ccc(Nc2c3ccccc3nc3occc23)cc1
endpoint-label: TGI
result: 39.5 µM
--
compound: CCOC(=O)/C=C(/C(=O)OCC)n1ccc(=O)n(Cc2cn(COCCOC(C)=O)nn2)c1=O
endpoint-label: TGI
result: 29 µM
--
compound: O=Cc1c(C(=O)O)[nH]c(=O)[nH]c1=O
endpoint-label: TGI
result: > 100 µM
--
compound: Nn1c(=O)n(Cc2ccccc2)n(-c2ccccc2)c1=O
endpoint-label: TGI
result: > 100 µM
--
compound: Cc1ccc(/C=C2\CCCc3ccccc3C2=O)cc1
endpoint-label: TGI
result: 65.9 µM
--
compound: Cc1ccn2c(c1)nc1nc3ccccc3nc12
endpoint-label: TGI
result: > 100 µM
--
compound: CCN(CC)CCNc1nc2ccc([N+](=O)[O-])cc2[n+]([O-])n1
endpoint-label: TGI
result: 64.1 µM
--
compound: CC(=O)[O-].CCN(CC)c1ccc(C=NCCN=Cc2ccc(N(CC)CC)cc2[O-])c([O-])c1.[Mn+3]
endpoint-label: TGI
result: 66.4 µM
--
compound: O=C(NC1=CC(=O)c2ccccc2C1=O)c1ccccc1
endpoint-label: TGI
result: 2.82 µM
--
compound: CCOc1ccccc1NC(=O)CC(C(=O)OC)C(=O)C(=O)OC (centres undefined)
endpoint-label: TGI
result: > 100 µM
--
compound: C=C1C(=O)O[C@H]2[C@H]1CC/C(COC(=O)C(=O)c1cn(Cc3ccccc3)c3ccccc13)=C\CC[C@@]1(C)O[C@@H]21
endpoint-label: TGI
result: 7.77 µM
--
compound: O=C(O)C1OC(n2cc(F)c(=O)[nH]c2=O)CC1O (centres undefined)
endpoint-label: TGI
result: > 100 µM
--
compound: CC(=O)/C(C)=N/NC(=O)c1ccccc1O
endpoint-label: TGI
result: > 100 µM
--
compound: CCOC(=O)c1nc2ccc(C(F)(F)F)cc2nc1NCc1cc(OC)c(OC)c(OC)c1
endpoint-label: TGI
result: > 100 µM
--
compound: COc1cc(/C=C2/C[C@H]3[C@@H]4CC=C5C[C@@H](O)CC[C@]5(C)[C@H]4CC[C@]3(C)NC2=O)cc(OC)c1OC
endpoint-label: TGI
result: > 100 µM
--
compound: CCOC(=O)C1=C(C)N(NC(=O)Nc2ccccc2)C(=O)C1=P(c1ccccc1)(c1ccccc1)c1ccccc1
endpoint-label: TGI
result: > 100 µM
--
compound: COC(=O)[C@H](C)NC(=O)NC(=O)NC(=O)CI
endpoint-label: TGI
result: 34.4 µM
--
compound: NCC1Nc2ccccc2[C@@H](O)C1O (some centres undefined)
endpoint-label: TGI
result: > 100 µM
--
compound: CC(C)(C)c1ccc2c(c1)S(=O)(=O)Nc1ccccc1NS(=O)(=O)c1cc(C(C)(C)C)ccc1OCCOCCOCCO2
endpoint-label: TGI
result: > 100 µM
--
compound: COc1cc(C=C2C(=O)NC(=O)NC2=O)cc(OC)c1OC
endpoint-label: TGI
result: > 100 µM
--
compound: COc1ccc(C2OC[C@H]3O[C@@H](OCc4ccccc4)[C@H](O)[C@@H](O)[C@@H]3O2)cc1 (some centres undefined)
endpoint-label: TGI
result: > 100 µM
--
compound: COC1(OC)C2(Cl)C(Cl)=C(Cl)C1(Cl)C1C=CC=CC12 (centres undefined)
endpoint-label: TGI
result: > 100 µM
--
compound: CCOC(=O)CNc1c(OCc2ccccc2)c(=O)c1=O
endpoint-label: TGI
result: > 100 µM
--
compound: Cc1ccc(-c2c(C#N)c(-c3ccc(Cl)cc3)c(C#N)c(=O)n2NS(=O)(=O)c2ccc(C)cc2)cc1
endpoint-label: TGI
result: > 100 µM
--
compound: COc1cc(C(=O)N(Cc2cccnc2)C(=S)N(Cc2cccnc2)C(=O)c2cc(OC)c(OC)c(OC)c2)cc(OC)c1OC
endpoint-label: TGI
result: > 100 µM
--
compound: COc1ccc(C(=O)C(C(=O)CCC(=O)Nc2cccc(Cl)c2)c2ccc(OC)cc2)cc1 (centres undefined)
endpoint-label: TGI
result: > 100 µM
--
compound: COc1cc2c(cc1OC)C(CC(=O)NN=C(C)C)NCC2 (centres undefined)
endpoint-label: TGI
result: > 100 µM
--
compound: COCN(CCC1=CCCCC1)C(=O)OC
endpoint-label: TGI
result: > 100 µM
--
compound: CC(C)[Si](OC1=C(C(=O)N(C)c2cccc(Cl)c2)CCCC1)(C(C)C)C(C)C
endpoint-label: TGI
result: 29.2 µM
--
compound: CCCCCCCC/C=C/CCCCCCCC(=O)OC[C@H]1O[C@@H](n2ccc(N)nc2=O)C(F)(F)[C@@H]1O
endpoint-label: TGI
result: > 100 µM
--
compound: CC1OC(OC2C(O[C@H]3CC[C@@]4(C)C(=CC[C@H]5[C@@H]6C[C@@H]7O[C@]8(CC[C@@H](CO)CO8)[C@@H](C)[C@@H]7[C@@]6(C)CC[C@@H]54)C3)OC(CO)C(O)C2OC2OC(CO)C(O)C(O)C2O)C(O)C(O)C1O (some centres undefined)
endpoint-label: TGI
result: 3.54 µM
--
compound: NC(N)=NCCC[C@H](N)C(=O)NCC(=O)N[C@@H](CC(=O)O)c1ncc(NC(=O)C(F)(F)F)o1
endpoint-label: TGI
result: > 25 µM
--
compound: C=CC(CCc1ccc(C(=O)OCC)cc1)c1c(N)nc(N)[nH]c1=O (centres undefined)
endpoint-label: TGI
result: > 100 µM
--
compound: O=C(N/N=C\c1cccc2c([N+](=O)[O-])cccc12)Nc1ccccc1
endpoint-label: TGI
result: 35.8 µM
